Numbers sourced from paper PMC6017588.

# system_under_test: MOR (Rattus norvegicus, UniProt P33535)
# experimental_protocol: Inhibition of forskolin-stimulated cAMP accumulation in HEK293 cells stably expressing MOR
# Assay type: cell-based
# cond: maximal percent inhibition of cAMP accumulation, read-out: Imax (%) ± SD MOR
Reported Emax is given for each of the following molecules.
Please state the figure in %; there is no need to write the unit.

In the examples that follow, each entry is paired with its recorded Emax.
{"columns": ["molecule", "units", "result"],
 "data": [
  ["C[C@H]1[C@H]2Cc3ccc(O)cc3[C@]1(C)CCN2CCNc1ccccc1", "%", 60],
  ["CCN(CCN1CC[C@@]2(C)c3cc(O)ccc3C[C@@H]1[C@@H]2C)c1ccccc1", "%", 55],
  ["C[C@H]1[C@H]2Cc3ccc(O)cc3[C@]1(C)CCN2CCCNc1ccccc1", "%", 50]
]}

## Input Request: Emax, test system MOR (Rattus norvegicus, UniProt P33535), entry C[C@H]1[C@H]2Cc3ccc(O)cc3[C@]1(C)CCN2CCN(C)c1ccccc1
## Output 72

## Input Form: Entry = C[C@H]1[C@H]2Cc3ccc(O)cc3[C@]1(C)CCN2CCCN(C)c1ccccc1 | System = MOR (Rattus norvegicus, UniProt P33535) | Emax = ____
## Output 50

## Input Form field: Emax recorded for C[C@H]1[C@H]2Cc3ccc(O)cc3[C@]1(C)CCN2CCC(=O)Nc1ccccc1 [LP1, reference compound] with MOR (Rattus norvegicus, UniProt P33535) (enter value)
## Output 73

## Input # returns recorded Emax (system: MOR (Rattus norvegicus, UniProt P33535)) for CCN(CCCN1CC[C@@]2(C)c3cc(O)ccc3C[C@@H]1[C@@H]2C)c1ccccc1
## Output 40

## Input Request: Emax, test system MOR (Rattus norvegicus, UniProt P33535), entry C[C@H]1[C@H]2Cc3ccc(O)cc3[C@]1(C)CCN2CCNC1CCCCC1
## Output 28

## Input Query Emax on MOR (Rattus norvegicus, UniProt P33535) for C[C@@H](NC(=O)[C@@H](N)Cc1ccc(O)cc1)C(=O)NCC(=O)N(C)[C@@H](Cc1ccccc1)C(=O)NCCO [DAMGO, reference compound]
## Output 73

----------
As shown below, each of these molecules has a reported pKi value.
# system_under_test: KOR (Cavia porcellus)
# Construct: from tissue; host or cells: guinea pig brain membranes
# experimental_protocol: KOR competitive radioligand binding ([3H]-(+)-U69,593 displacement, guinea pig brain membranes)
// pKi is dimensionless: -log10 of concentration (M)

Sample answers from the record:
{"columns": ["molecule", "result"],
 "data": [
  ["C[C@H]1[C@H]2Cc3ccc(O)cc3[C@]1(C)CCN2CCCNC1CCCCC1 [6b]", 6.90],
  ["C[C@H]1[C@H]2Cc3ccc(O)cc3[C@]1(C)CCN2CCCNc1ccccc1 [6a]", 7.15],
  ["CCN(CCN1CC[C@@]2(C)c3cc(O)ccc3C[C@@H]1[C@@H]2C)c1ccccc1 [5d]", 7.54],
  ["C[C@H]1[C@H]2Cc3ccc(O)cc3[C@]1(C)CCN2CCNc1ccccc1 [5a]", 7.00],
  ["C[C@H]1[C@H]2Cc3ccc(O)cc3[C@]1(C)CCN2CCCN(C)c1ccccc1 [6c]", 7.03]
]}

## Input GET /values?readout=pKi&item= CCN(CCCN1CC[C@@]2(C)c3cc(O)ccc3C[C@@H]1[C@@H]2C)c1ccccc1 [6d]
## Output 7.25

## Input Requested field: pKi. Item: C[C@H]1[C@H]2Cc3ccc(O)cc3[C@]1(C)CCN2CCNC1CCCCC1 [5b]
## Output 7.70

## Input For the molecule C[C@H]1[C@H]2Cc3ccc(O)cc3[C@]1(C)CCN2CCN(C)c1ccccc1 [5c] , what pKi is on record?
## Output 7.51

----------
# system_under_test: KOR (Cavia porcellus, UniProt P41144)
# Construct: from tissue; host or cells: guinea pig brain membranes
# experimental_protocol: KOR competitive radioligand binding ([3H]-(+)-U69,593 displacement, guinea pig brain membranes)
# cond: [3H]U69,593 displacement, guinea pig brain membranes; read-out: Ki (nM) ± SEM KOR
quantity_name: Ki (nM)
Form entry: value (nM) — number only.

## Input # lookup: Ki of C[C@H]1[C@H]2Cc3ccc(O)cc3[C@]1(C)CCN2CCC(=O)Nc1ccccc1 [LP1, reference compound]
## Output 110

----------
# system_under_test: DOR (Rattus norvegicus, UniProt P33533)
# Construct: from tissue; host or cells: rat brain membranes
# experimental_protocol: DOR competitive radioligand binding ([3H]-DPDPE displacement, rat brain membranes)
# cond: [3H]DPDPE displacement, rat brain membranes; read-out: Ki (nM) ± SEM DOR
quantity_name: Ki (nM)
// note: answer is a bare numeric in nM

## Input For the compound C[C@H]1[C@H]2Cc3ccc(O)cc3[C@]1(C)CCN2CCC(=O)Nc1ccccc1 [LP1, reference compound] , what Ki is on record?
## Output 29.1

----------
# system_under_test: MOR (Rattus norvegicus)
# experimental_protocol: MOR competitive radioligand binding ([3H]-DAMGO displacement, rat brain membranes)
# Design: from tissue; host or cells: rat brain membranes
A collection of molecules and their measured Ki
Record the value in nM, omitting the unit from your answer.

These recorded examples may help you get a feel for the data.
{"columns": ["molecular_string", "units", "Ki"],
 "data": [
  ["C[C@H]1[C@H]2Cc3ccc(O)cc3[C@]1(C)CCN2CCN(C)c1ccccc1", "nM", 6.1],
  ["C[C@H]1[C@H]2Cc3ccc(O)cc3[C@]1(C)CCN2CCCNc1ccccc1", "nM", 7],
  ["CCN(CCCN1CC[C@@]2(C)c3cc(O)ccc3C[C@@H]1[C@@H]2C)c1ccccc1", "nM", 86],
  ["C[C@H]1[C@H]2Cc3ccc(O)cc3[C@]1(C)CCN2CCNc1ccccc1", "nM", 83]
]}

## Input What measured Ki is associated with C[C@H]1[C@H]2Cc3ccc(O)cc3[C@]1(C)CCN2CCCNC1CCCCC1 on MOR (Rattus norvegicus)?
## Output 48

## Input Lookup: Ki / MOR (Rattus norvegicus) / C[C@H]1[C@H]2Cc3ccc(O)cc3[C@]1(C)CCN2CCCN(C)c1ccccc1
## Output 68

## Input Look up Ki with MOR (Rattus norvegicus) for this molecule: CCN(CCN1CC[C@@]2(C)c3cc(O)ccc3C[C@@H]1[C@@H]2C)c1ccccc1
## Output 160

## Input Enter reported Ki observed with MOR (Rattus norvegicus) for C[C@H]1[C@H]2Cc3ccc(O)cc3[C@]1(C)CCN2CCNC1CCCCC1
## Output 8.3

----------
# system_under_test: MOR (Rattus norvegicus)
# experimental_protocol: MOR competitive radioligand binding ([3H]-DAMGO displacement, rat brain membranes)
# Design: from tissue; host or cells: rat brain membranes
# cond: [3H]DAMGO displacement, rat brain membranes; read-out: Ki (nM) ± SEM MOR
quantity_name: Ki (nM)
API: value field is a number in nM; no unit string.

## Input Observed Ki on MOR (Rattus norvegicus) for C[C@H]1[C@H]2Cc3ccc(O)cc3[C@]1(C)CCN2CCC(=O)Nc1ccccc1 [LP1, reference compound] , please.
## Output 0.83

----------
# system_under_test: DOR (Rattus norvegicus, UniProt P33533)
# Construct: from tissue; host or cells: rat brain membranes
# experimental_protocol: DOR competitive radioligand binding ([3H]-DPDPE displacement, rat brain membranes)
quantity_name: pKi
The value called pKi is obtained by taking minus log10 of the concentration in mol/L.

{"columns": ["molecule", "pKi"],
 "data": [
  ["CCN(CCN1CC[C@@]2(C)c3cc(O)ccc3C[C@@H]1[C@@H]2C)c1ccccc1 [5d]", 6.39],
  ["C[C@H]1[C@H]2Cc3ccc(O)cc3[C@]1(C)CCN2CCCNc1ccccc1 [6a]", 6.93],
  ["Oc1ccc2c3c1O[C@H]1c4[nH]c5ccccc5c4C[C@@]4(O)[C@@H](C2)N(CC2CC2)CC[C@]314 [Naltrindole, reference compound]", 8.95],
  ["C[C@H]1[C@H]2Cc3ccc(O)cc3[C@]1(C)CCN2CCNc1ccccc1 [5a]", 6.57],
  ["C[C@H]1[C@H]2Cc3ccc(O)cc3[C@]1(C)CCN2CCNC1CCCCC1 [5b]", 7.15]
]}

## Input Quick one: pKi of C[C@H]1[C@H]2Cc3ccc(O)cc3[C@]1(C)CCN2CCN(C)c1ccccc1 [5c] ?
## Output 6.83

## Input # lookup: pKi of CCN(CCCN1CC[C@@]2(C)c3cc(O)ccc3C[C@@H]1[C@@H]2C)c1ccccc1 [6d]
## Output 5.97

----------
# system_under_test: KOR (Homo sapiens, UniProt P41145)
# Construct: FLAG
# experimental_protocol: Inhibition of forskolin-stimulated cAMP accumulation in HEK293 cells stably expressing KOR
# Experimental: As typical Gi/o coupled receptor, MOR, DOR and KOR signals are mediated by AC inhibition. […] Measurements of cAMP accumulation. […] The generation of cAMP was assessed in response to treatment of the cells with various concentrations of the appropriate ligand (10 pM–50 μΜ) using 50 μΜ forskolin at 37 °C. […]
quantity_name: IC50 (nM)
Please respond with the number in nM and leave the unit unwritten.

## Input Quick one: IC50 of C[C@H]1[C@H]2Cc3ccc(O)cc3[C@]1(C)CCN2CCNC1CCCCC1 ?
## Output 180

## Input Name the reported IC50 value associated with the molecule C[C@H]1[C@H]2Cc3ccc(O)cc3[C@]1(C)CCN2CCCNc1ccccc1
## Output 1400

## Input What measured IC50 goes with C[C@H]1[C@H]2Cc3ccc(O)cc3[C@]1(C)CCN2CCNc1ccccc1 ?
## Output 1000
